system: MCF7; experiment: NCI tumour cell line growth inhibition, 48 h
The source made the active and inactive calls. No stated cut-off is given here; in the data, active = GI50 up to about 1.1 µM and inactive = higher.
Select the matching outcome among true (1) = active, false (0) = inactive

[[record]]
molecule = "CC1=NN(c2ccccc2)C(=O)/C1=C/c1ccc(O)cc1"
assigned_label = "false (0)"

[[record]]
molecule = "CS(=O)(=O)NC12CCC(c3ccccc31)c1ccccc12"
assigned_label = "false (0)"

[[record]]
molecule = "Cc1ccc(SCC(CSCCO)OCn2cnc3c2N=C(N)NC32OCCO2)cc1 (centres undefined)"
assigned_label = "false (0)"


Problem: Called result for CC(C)C(O)(C(C)C)C(C)C
Solution: false (0)

Problem: Another molecule: C=C(Br)CN(C(C)=O)C1CCCCC1
Solution: false (0)

Problem: Try this molecule next: FC(F)(F)c1cnc(N/N=C(/c2ccccc2)c2ccccn2)c(Cl)c1
Solution: false (0)

Problem: Can you handle C/C(=C/CC[C@]1(CO)CC[C@]2(C)[C@H](CC[C@@H]3[C@@]4(C)CC[C@H](OC5OC(CO)C(O)C(O)C5OC5OC(CO)C(O)C(O)C5O)C(C)(C)[C@@H]4CC[C@]32C)[C@H]1O)CO (some centres undefined) next?
Solution: false (0)

Problem: Now give it for COc1cc2c(cc1OC)[C@H]1CN3CCC[C@H]3C=C1c1ccc(OC)c(O)c1-2 too.
Solution: true (1)

Problem: Next up: O=C(NCc1ccccc1)c1c(O)nc2ccccc2c1O
Solution: false (0)
